Catalogue of inhibition readings, one per entry.
Molecular target: Homeodomain-interacting protein kinase 1 (Homo sapiens);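 further: each value is a mean percent inhibition of HIPK1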
Settings: at 0.1 µM
readout_label: inhibition (%)

>>> recorded_number("COC(=O)Nc1nc2cc(Oc3cccc(NC(=O)Nc4cc(C(F)(F)F)ccc4F)c3)ccc2[nH]1")
-3.75
>>> recorded_number("N#Cc1c(NC(=O)c2cccc3ccccc23)sc2c1CCCC2")
-2.43
>>> recorded_number("CS(=O)(=O)CCNCc1ccc(-c2ccc3ncnc(Nc4ccc(OCc5ccccc5)c(Cl)c4)c3c2)o1")
-2.41
>>> recorded_number("CC(=O)Nc1cccc(C#Cc2cncnc2Nc2ccc(OCc3cccc(F)c3)c(Cl)c2)n1")
1.74
>>> recorded_number("CCn1c(-c2nonc2N)nc2cncc(C(=O)N3CC[C@H](N)C3)c21")
1.36

Just for reference, ChEMBL document CHEMBL1961873 is where these values come from.
